System: 786-0 renal
assay-comment: NCI tumour cell line growth inhibition, 48 h
In this section, each of the compounds is paired with its reported GI50.

Nc1nccc(-c2c(-c3ccc(F)cc3)ncn2C2CCC(O)CC2)n1 (stereo not given) = 10.7 µM
O=c1cc(-c2ccccc2)oc2cc(OC/C(=N/O)c3ccccc3)ccc12 = 26.1 µM

For the compound COc1cc2cc(Oc3ccc(NC(=O)Nc4ccc(Cl)c(C(F)(F)F)c4)cc3)c(C)nc2cc1OCCN1CCOCC1 , what GI50 is on record?
1.89 µM

Please answer likewise for CC/C=C\C[C@H](F)C/C=C1/C(=O)C=C[C@@H]1C/C=C\CCCC(=O)O
7.24 µM

Same read-out for O=C(CCc1nnc2sc(-c3ccc(Cl)cc3Cl)nn12)c1nc2ccccc2[nH]1 ?
1.48 µM

* * *

Each item that follows carries a reported TGI.
Tested on: CCRF-CEM leukemia
assay-comment: NCI tumour cell line growth inhibition, 48 h

c1nc(N2CC2)c2cnn(C3CCCCO3)c2n1 (stereo not given) = > 100 µM
O=C(O)CCC(=O)Nc1ccc2ccccc2c1 = > 100 µM
NC(=S)N1N=C2c3ccccc3CC[C@@H]2[C@@H]1c1ccccc1 = 62.3 µM

Entry O=C(O)C(CS)Nc1c2ccccc2nc2ccccc12 (stereo not given) has what TGI?
> 100 µM

Item: C/C(O)=C(\N=O)C(=O)Nc1ccc(Cl)cc1Cl
> 100 µM

* * *

TGI values for the compounds below.
System: SNB-75 CNS
assay-comment: NCI tumour cell line growth inhibition, 48 h

N#C/C(=C\c1ccc2ccccc2c1)c1ccccc1 = 48.6 µM
O=C1c2[nH]c3ccc(Br)cc3c2CCN1Cc1ccc(Cl)cc1 = 38.5 µM
CCC/C=C/c1cc2c(cc1O)CC[C@@H]1[C@@H]2CC[C@]2(C)[C@@H](O)CC[C@@H]12 = 34.6 µM
CCOC(=O)NC(=O)c1cn(CCNCCO)c(=O)[nH]c1=O = > 100 µM
O=C(O)CCNC1CCCCC1 = > 100 µM

# query: TGI of entry C/C(O)=C(\N=O)C(=O)Nc1ccc(Cl)cc1Cl
> 100 µM

* * *

System: T-47D breast
assay-comment: NCI tumour cell line growth inhibition, 48 h
measured-endpoint: GI50

Solved entries:
Cc1ccc(-c2nc3nc(-c4ccccc4)nc(N4CCCNCC4)c3o2)cc1 = 1.73 µM
CCCC(=O)OCC1OC(n2cnc3c(=S)nc[nH]c32)C(OC(=O)CCC)C1OC(=O)CCC (stereo unspecified) = 0.794 µM
C[N+]1=C(/C=C/c2ccc(O)c3ncccc23)C(C)(C)c2ccccc21 = 2.94 µM
CCCn1c(=S)sc2c1nc(C)n1c(Nc3ccccc3)nnc21 = 1.63 µM
CC1(C)OC2=C(CC1Br)C(=O)C(=O)c1ccccc12 (stereo unspecified) = 2.03 µM

Can you look up GI50 on T-47D breast for Cc1ccc2c(c1)Sc1c(ccc3ccccc13)N2 ?
38.3 µM

Please do the same for C=C(C[C@](O)(C(=O)/C=C/c1ccc(Cl)cc1)C(=O)OC)c1ccccc1 as well.
1.29 µM

Same lookup for COc1ccc(-c2nc(-c3nc4ccc(Cl)cc4[nH]3)c3ccccn23)cc1 , please.
3.66 µM

Moving on to the next molecule: O=C1C(Cl)=C(NCCN2CCOCC2)C(=O)c2ncccc21
1.83 µM

Further, for O=S(=O)(NC1=NCCN1C(=S)SN1CCn2c1nsc2=S)c1cccc(Cl)c1 ?
6.81 µM

Again, but for CCCCCCCCn1ccc2cc(NC(=O)Cn3cc(CN4CCCC4)nn3)ccc21
1.73 µM

* * *

Tested on: KM12 colon
assay-comment: NCI tumour cell line growth inhibition, 48 h
Listing of entries alongside the reported TGI.

Below, each entry is followed by its recorded TGI result.
NCCCCC(NC(=O)C(N)Cc1ccc(O)cn1)C(=O)O (stereo unspecified) = > 100 µM
CCOC(=S)SSSC(=S)OCC = > 100 µM
Nc1nc(I)nc2c1ncn2C1OC(COS(N)(=O)=O)C(O)C1O (stereo unspecified) = 0.0297 µM
CC(C)(C)c1cc(CCC(=O)Nc2ccc(Cl)cc2)nc(NC#N)n1 = > 100 µM
O=C(CC1(O)C(=O)Nc2c(Cl)ccc(Cl)c21)c1ccc(F)cc1 (stereo unspecified) = > 100 µM
O=C1CN(C(=O)C2CCCN2C(=O)C2CCCN2)C(=O)CN1 (stereo unspecified) = > 100 µM
O=C(O)C(=Cc1ccc(-c2ccccc2)cc1)C(=O)O = 40.9 µM
COC1(OC)CC2OC1C1N=NN(C(=O)OC(C)(C)C)C21 (stereo unspecified) = > 100 µM
O=C1c2ccccc2C(=O)N1CCc1ncc[nH]1 = > 100 µM
CC(C)(C)C(=O)OCOP(=O)(OCOC(=O)C(C)(C)C)OCC1OC(n2ccc(=O)[nH]c2=O)C(N=[N+]=[N-])C1O (stereo unspecified) = 12.8 µM

Given the compound O=S(=O)(NC1=NCCN1C(=S)SN1CCn2c1nsc2=S)c1cccc(Cl)c1 , what is its reported TGI?
34.1 µM

* * *

Test system: NCI-H23 lung
assay-comment: NCI tumour cell line growth inhibition, 48 h; in the data active = GI50 below about 0.43 µM; inactive = the rest
A correct response names exactly one class from active, inactive

COc1ccc(C(=O)C#Cc2cnc(OC)nc2OC)cc1 = inactive
Cc1ccc(C(=O)NC(C)C)cc1-c1ccc(C(=O)NCC2CC2)cc1 = inactive
Cc1ccc2c(c1)Sc1c(ccc3ccccc13)N2 = inactive
CCOC1Oc2ccc(C)cc2C(=O)/C1=C\Nc1ccc(C(N)=O)cc1 (stereo unspecified) = inactive
CCCC(=O)OCC1OC(n2cnc3c(=S)nc[nH]c32)C(OC(=O)CCC)C1OC(=O)CCC (stereo unspecified) = inactive

How was COc1ccc2c(c1)CCCN2c1c2ccccc2nc2ccccc12 classified in this test?
active

* * *

System: OVCAR-8 ovarian
assay-comment: NCI tumour cell line growth inhibition, 48 h
measured-endpoint: TGI

Known results for compounds:
COc1nc(N=P(c2ccccc2)(c2ccccc2)c2ccccc2)cc(=O)[nH]1 = > 100 µM
Cc1ccc([N+](=O)[O-])cc1S(=O)(=O)Nc1ccc(C2=NN(c3ccc([N+](=O)[O-])cc3[N+](=O)[O-])C(c3cccs3)C2)cc1 (configuration not stated) = 92.1 µM
NC12CC3CC(C1)CC(C(=O)O)(C3)C2 = > 100 µM

I am curious: what TGI value has been reported for CS(=O)(=O)c1ccc(-n2nc(C(F)(F)F)cc2OC2CCCC2)cc1 ?
> 100 µM

Same question, O=C1N[C@H]2c3c(Cl)sc(Cl)c3[C@@H](O)[C@H]2O1 this time
> 100 µM

Entry C[N+](C)(C)CCCSc1nc2ccccc2[nH]1 please
> 100 µM

Do the same for COc1ccc(CC2CCc3nc(N)nc(N)c3C2)cc1OC (configuration not stated) please
> 62.5 µM

Request: CC(SC(=S)N1CCOCC1)c1cc2oc(=O)n(C)c2cc1Cl (configuration not stated)
> 100 µM

Continue with N#CC1C(=O)N(c2ccccc2)NC12OC(=O)c1ccncc12 (configuration not stated)
> 20 µM

// repeat for O=C(CC1C(=O)NN(c2ccc(Br)cc2)C1=O)c1cc(O)ccc1O (configuration not stated) and report
> 50 µM

# repeat for O=C(CC1(O)C(=O)Nc2c(Cl)ccc(Cl)c21)c1ccc(F)cc1 (configuration not stated)
> 100 µM

Moving on to CN1CCN(c2ccc3[nH]c(-c4cc(O)c5c(nc(CO)n5C)c4O)nc3n2)CC1
> 100 µM

One more compound: O=C1CCC2(c3ccccc3)Nc3ccncc3N12 (configuration not stated)
> 10 µM

Same again, this time with CCN(CC)CCCC(C)Nc1c2ccc(Cl)cc2nc2ccc(O)cc12 (configuration not stated)
11.7 µM

Now this one: C[C@@H]1OC(=O)N2CCCC(=C3SCCCS3)C12 (some centres not stated)
> 100 µM

Subsequent entry: O=C(NC12CC3CC(CC(F)(C3)C1)C2)c1ccccc1
> 100 µM

Repeat with O=c1[nH]nc(-c2ccccc2)n1-c1ccncc1
> 100 µM

Repeat with O=C(Nc1ccc(-c2nc(N3CCOCC3)c3cccn3n2)cc1)Nc1cccnc1
> 100 µM

* * *

System: SK-MEL-2 melanoma
assay-comment: NCI tumour cell line growth inhibition, 48 h
Attribute: GI50

Some entries whose results are on file:
Nc1nccc(-c2c(-c3ccc(F)cc3)ncn2C2CCC(O)CC2)n1 (stereo unspecified) = 24.7 µM
O=C(O)CCNC1CCCCC1 = > 100 µM
CC/C=C\C[C@H](F)C/C=C1/C(=O)C=C[C@@H]1C/C=C\CCCC(=O)O = 6.7 µM
CCCCCCCC[C@@H](O)CC(=O)N[C@@H](CC(N)=O)C(=O)N[C@@H](CCC(N)=O)C(=O)N[C@@H](CC(=O)c1cc(C)cc(O)c1C(=O)c1c(O)cccc1O)CC(C)C = 2.76 µM
CS(=O)(=O)c1ccc(-n2nc(C(F)(F)F)cc2OC2CCCC2)cc1 = > 100 µM

Which GI50 reading was recorded for the compound Nc1nc(N(Cc2ccccc2)c2ccccc2)c2cn[nH]c2n1 ?
3.14 µM
